- assay comment: BSK_SAg_SRB: Viability Assessment in the BioMAP Diversity Plus: SAg Assay (AID 2283096);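 further: cells read one day after compound addition; hits may be either gain or loss of signal compared with DMSO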
- assay setup: primary human HUVEC with PBMC
Activity calls are given as the source filed them. How the source made its calls: active means hit-call score of the fitted dose curve at least 0.9, where 1 is the maximum; inactive means score below 0.9.
Outcomes: active, inactive

1) CCCCCCCCCCCCCCCCCC[N+](C)(C)Cc1ccccc1 = active
2) CN(CCO)S(=O)(=O)C(F)(F)C(F)(F)C(F)(F)C(F)(F)C(F)(F)C(F)(F)C(F)(F)C(F)(F)F = inactive
3) CCCCCCCCCCCCOS(=O)(=O)O = inactive
4) COc1cc(OC)nc(NC(=O)NS(=O)(=O)Nc2ccccc2C(=O)N(C)C)n1 = inactive
5) COCN(COC)c1nc(N(COC)COC)nc(N(COC)COC)n1 = inactive

* * *

- study target: Estrogen receptor (Homo sapiens) (UniProt P03372)
- Sequence (P03372 whole entry, looked up): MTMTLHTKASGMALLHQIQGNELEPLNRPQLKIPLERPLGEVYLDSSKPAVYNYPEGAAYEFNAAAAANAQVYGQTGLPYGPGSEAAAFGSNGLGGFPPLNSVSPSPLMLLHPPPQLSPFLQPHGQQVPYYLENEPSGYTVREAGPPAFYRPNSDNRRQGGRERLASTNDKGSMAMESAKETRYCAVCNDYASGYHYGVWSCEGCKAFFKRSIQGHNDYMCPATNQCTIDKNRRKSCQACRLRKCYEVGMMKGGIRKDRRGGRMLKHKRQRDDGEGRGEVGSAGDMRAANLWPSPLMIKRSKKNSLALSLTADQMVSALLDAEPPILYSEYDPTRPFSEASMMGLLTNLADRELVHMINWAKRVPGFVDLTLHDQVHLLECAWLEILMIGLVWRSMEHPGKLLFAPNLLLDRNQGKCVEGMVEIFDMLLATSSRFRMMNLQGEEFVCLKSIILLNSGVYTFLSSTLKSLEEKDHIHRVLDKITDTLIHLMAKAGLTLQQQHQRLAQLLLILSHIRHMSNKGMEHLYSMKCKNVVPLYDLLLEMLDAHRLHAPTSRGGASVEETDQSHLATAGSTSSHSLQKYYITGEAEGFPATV
- assay comment: OT_ERa_GFPERaERE_0480: Odyssey Thera (OT) 8-hour HeLa Transcription Induction Assay for Estrogen Receptor (AID 2283381)
Activity calls are given as the source filed them. Rule for the calls: active = hit-call score of the fitted dose curve at least 0.9, where 1 is the maximum; inactive = score below 0.9.
Labels: active, inactive

1) CN(Cc1cnc2nc(N)nc(N)c2n1)c1ccc(C(=O)N[C@@H](CCC(=O)O)C(=O)O)cc1 = inactive
2) CCc1ccccc1O = inactive
3) C=CC(C)(CCC=C(C)C)OC(C)=O (stereo not given) = inactive
4) CCCCc1oc2ccccc2c1C(=O)c1cc(I)c(OCCN(CC)CC)c(I)c1 = inactive
5) O=C(O)c1cccc(C(=O)O)n1 = inactive
6) NCc1cccc(CN)c1 = inactive
7) Cc1cc(Cc2cc(C)cc(C(C)(C)C)c2O)c(O)c(C(C)(C)C)c1 = inactive
8) CCCCCCCCCCCCOC(=O)c1cc(O)c(O)c(O)c1 = active
9) CCCCCCCCCC=CCC1CC(=O)OC1=O (stereo not given) = inactive
10) N=C(N)c1ccc(OCCCCCOc2ccc(C(=N)N)cc2)cc1 = inactive

* * *

- assay comment: ATG_BRE_CIS: Attagene CIS-FACTORIAL HepG2 Assay for human Bone Morphogenetic Protein (BMP) Response Element (BRE) (AID 2282933)
- assay setup: HepG2 BMP response element reporter, Attagene transcription factor profiling; actives raise or lower the signal
- Description: ATG_CIS is a cell-based, multiplexed-readout assay that uses HepG2, a human liver cell line, with measurements taken at 24 hours after chemical dosing in a 24-well plate.ATG_BRE_CIS is one of 52 assay component(s) measured or calculated from the ATG_CIS assay. […] This assay endpoint, ATG_BRE_CIS, was analyzed with bidirectional fitting relative to DMSO as the negative control and baseline of activity. […]
Active and inactive are the calls of the source. How the source made its calls: active means hit-call score of the fitted dose curve at least 0.9, where 1 is the maximum; inactive means score below 0.9.
Labels: label 1 (active), label 0 (inactive)

1) Oc1c(Cl)ccc(Cl)c1Cl = label 0
2) CC1CCC(CO)CC1 (stereo not drawn) = label 0
3) CCCCCc1ccc(O)cc1 = label 0
4) O=C(Nc1ccc(Cl)c(Cl)c1)c1cc(Cl)cc(Cl)c1O = label 1
5) OCC(F)(F)C(F)(F)C(F)(F)C(F)(F)C(F)(F)C(F)(F)C(F)(F)C(F)(F)C(F)(F)C(F)(F)C(F)(F)F = label 0
6) CC1COCc2cc3c(cc21)C(C)(C)C(C)C3(C)C (stereo not drawn) = label 0
7) O=S(=O)(O)C(F)(F)C(F)(F)C(F)(F)C(F)(F)C(F)(F)C(F)(F)C(F)(F)C(F)(F)C(F)(F)C(F)(F)F = label 0
8) CCOC(OCC)C(=O)c1ccccc1 = label 0
9) CCCCCCCCCCCC(=O)O = label 0
10) O=S(=O)(O)c1ccc2cc(O)ccc2c1 = label 0
11) Nc1ccc(O)c(C(=O)O)c1 = label 0
12) Cc1[nH]nc2c1N=C(c1ccccc1Cl)c1cc([N+](=O)[O-])ccc1N2 = label 0
13) CC(C)(O)C(=O)c1ccccc1 = label 0

* * *

- assay comment: CEETOX_H295R_DOC: CeeTox H295R High-throughput Steroidogenesis Assay for DOC (AID 2283439)
- assay setup: actives raise or lower the signal
Calls of active or inactive are those of the source. The calls were made as follows: active = hit-call score of the fitted dose curve at least 0.9, where 1 is the maximum; inactive = score below 0.9.
Classes used: yes (1) = active, no (0) = inactive

1. O=C(NCc1ncc(C(F)(F)F)cc1Cl)c1c(Cl)cccc1Cl = no (0)
2. Cc1cccc2c1ccc1ccccc12 = no (0)
3. CCCCCC(C)OC(=O)COc1ccc(Cl)c2cccnc12 (configuration not stated) = no (0)
4. C[C@]12CC[C@@H]3c4ccc(O)cc4CC[C@H]3[C@@H]1C[C@@H](O)[C@@H]2O = yes (1)
5. O=C(CCCN1CCC(O)(c2ccc(Cl)cc2)CC1)c1ccc(F)cc1 = no (0)
6. CC(C)(c1ccc(Oc2ccc(N)cc2)cc1)c1ccc(Oc2ccc(N)cc2)cc1 = yes (1)
7. COc1cccc(O)c1 = no (0)

* * *

- assay comment: CCTE_Shafer_MEA_acute_network_burst_percentage: CCTE's Neural Acute Assay for Percentage of Network Bursts, Shafer Lab (AID 2284022);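 further: curves fitted for loss so actives lower network burst percentage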
The source made the active and inactive calls. Rule for the calls: active = hit-call score of the fitted dose curve at least 0.9, where 1 is the maximum; inactive = score below 0.9.
Possible outcomes: Y = active, N = inactive

1) OCC(CO)(CBr)CBr = N
2) CN(C)CCOC(c1ccccc1)c1ccccc1 = Y
3) CC(=O)Nc1ccc(O)cc1 = N
4) CCCCc1oc2ccccc2c1C(=O)c1cc(I)c(OCCN(CC)CC)c(I)c1 = N
5) Oc1c(Cl)cc(Cl)cc1Sc1cc(Cl)cc(Cl)c1O = Y

* * *

- Read-out: Interferon-gamma inducible Protein 10 (IP10), CXCL10 (gene 3627)
- assay comment: BSK_KF3CT_IP10: BioMAP Diversity Plus: KF3CT Assay for Interferon-gamma inducible Protein 10 (IP10) Biomarker Activity (AID 2283068)
- assay setup: primary human keratinocytes with fibroblasts; actives raise or lower the signal
Activity calls are given as the source filed them. The calls were made as follows: active = hit-call score of the fitted dose curve at least 0.9, where 1 is the maximum; inactive = score below 0.9.
Labels: active, inactive

1. CCCCCCCCCCCCCCCCCC[N+](C)(C)Cc1ccccc1 = active
2. C[C@]12CC[C@@H]3c4ccc(O)cc4CC[C@H]3[C@@H]1C[C@@H](O)[C@@H]2O = inactive
3. COC1=CC(=O)C[C@@H](C)[C@]12Oc1c(Cl)c(OC)cc(OC)c1C2=O = inactive
4. CCCCCCCCCCCCCCC = inactive
5. CC(C)(C)c1ccc(O)c(O)c1 = active
6. CS(=O)(=O)c1ccc([C@@H](CC2CCCC2)C(=O)Nc2cnccn2)cc1Cl = inactive
7. O=C(CCCN1CCC(O)(c2ccc(Cl)cc2)CC1)c1ccc(F)cc1 = inactive
8. CN(Cc1cnc2nc(N)nc(N)c2n1)c1ccc(C(=O)N[C@@H](CCC(=O)O)C(=O)O)cc1 = inactive
9. Oc1cc2ccccc2cc1O = inactive
10. CCC(C)c1ccccc1O (stereo not given) = inactive

* * *

- System: SERPINA7 (gene 6906)
- assay comment: CCTE_GLTED_hTBG: CCTE's human Thyroxine-binding Globulin (TBG) Inhibition Assay, Great Lakes Toxicology and Ecology Division (GLTED) Lab (AID 2284343);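 further: active chemicals lower fluorescence versus DMSO baseline by displacing probe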
Active and inactive are the calls of the source. Rule for the calls: active = hit-call score of the fitted dose curve at least 0.9, where 1 is the maximum; inconclusive = response in the unintended direction; inactive = score below 0.9.
recorded endpoint: AC50

1. O=C(c1ccccc1)c1ccccc1 = 40.2 µM (active)
2. O=C(CC(=O)C(F)(F)C(F)(F)C(F)(F)F)c1cccs1 = 14.1 µM (active)
3. COc1cc([N+](=O)[O-])ccc1N = 37 µM (active)
4. Cc1cc(Cc2cc(C)cc(C(C)(C)C)c2O)c(O)c(C(C)(C)C)c1 = 2.6 µM (active)
5. O=C(O)C(F)(F)OC(F)(F)C(F)(F)OC(F)(F)C(F)(F)OC(F)(F)C(F)(F)C(F)(F)C(F)(F)F = 20.8 µM (active)
6. CCCCCCCCCC=CCC1CC(=O)OC1=O (configuration not stated) = 60.7 µM (active)
7. O=P(O)(O)CCC(F)(F)C(F)(F)C(F)(F)C(F)(F)C(F)(F)C(F)(F)C(F)(F)C(F)(F)F = 95.6 µM (active)

* * *

- Read-out: Vascular endothelial growth factor receptor 2 (Homo sapiens)
- assay comment: BSK_4H_VEGFRII: BioMAP Diversity Plus: 4H Assay for Vascular endothelial growth factor receptor 2 (VEGFR2) Biomarker Activity (AID 2283031);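 on AC50: cell-surface VEGFR2 protein level quantified by ELISA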
- assay setup: primary human endothelial cells (HUVEC); actives raise or lower the signal
Active and inactive are the calls of the source. How the source made its calls: active means hit-call score of the fitted dose curve at least 0.9, where 1 is the maximum; inactive means score below 0.9.
recorded endpoint: AC50

1) CCCCc1oc2ccccc2c1C(=O)c1cc(I)c(OCCN(CC)CC)c(I)c1 = 21.2 µM (active)
2) Cc1cccc2c1ccc1ccccc12 = inactive
3) CS(=O)(=O)c1ccc([C@@H](CC2CCCC2)C(=O)Nc2cnccn2)cc1Cl = inactive
4) NC(=NCCCCCCN=C(N)/N=C(\N)Nc1ccc(Cl)cc1)/N=C(\N)Nc1ccc(Cl)cc1 = 4.47 µM (active)
5) CCCCC=O = inactive
6) CN(C)c1ccc(C(=C2C=CC(=[N+](C)C)C=C2)c2ccccc2)cc1 = 0.0249 µM (active)
7) O=C(NCc1ncc(C(F)(F)F)cc1Cl)c1c(Cl)cccc1Cl = inactive
